Experiment: Concentrations of itraconazole in solution by HPLC
Assay type: physicochemical
Conditions: PEG-400, organic solvent or mixture, 2000 mg Itraconazole from capsules into 1 L PEG-400 (stock solution); read-out: Soluble Itraconazole Concentration
assayEndpoint: solubility at 30 min (µg/mL)

1. CCC(C)n1ncn(-c2ccc(N3CCN(c4ccc(OCC5COC(Cn6cncn6)(c6ccc(Cl)cc6Cl)O5)cc4)CC3)cc2)c1=O (stereo not shown) = 1840
